Molecular target: human Nav 1.8 (Homo sapiens, UniProt Q9Y5Y9)
Sequence (Q9Y5Y9 whole entry, looked up, the tested form may be a part): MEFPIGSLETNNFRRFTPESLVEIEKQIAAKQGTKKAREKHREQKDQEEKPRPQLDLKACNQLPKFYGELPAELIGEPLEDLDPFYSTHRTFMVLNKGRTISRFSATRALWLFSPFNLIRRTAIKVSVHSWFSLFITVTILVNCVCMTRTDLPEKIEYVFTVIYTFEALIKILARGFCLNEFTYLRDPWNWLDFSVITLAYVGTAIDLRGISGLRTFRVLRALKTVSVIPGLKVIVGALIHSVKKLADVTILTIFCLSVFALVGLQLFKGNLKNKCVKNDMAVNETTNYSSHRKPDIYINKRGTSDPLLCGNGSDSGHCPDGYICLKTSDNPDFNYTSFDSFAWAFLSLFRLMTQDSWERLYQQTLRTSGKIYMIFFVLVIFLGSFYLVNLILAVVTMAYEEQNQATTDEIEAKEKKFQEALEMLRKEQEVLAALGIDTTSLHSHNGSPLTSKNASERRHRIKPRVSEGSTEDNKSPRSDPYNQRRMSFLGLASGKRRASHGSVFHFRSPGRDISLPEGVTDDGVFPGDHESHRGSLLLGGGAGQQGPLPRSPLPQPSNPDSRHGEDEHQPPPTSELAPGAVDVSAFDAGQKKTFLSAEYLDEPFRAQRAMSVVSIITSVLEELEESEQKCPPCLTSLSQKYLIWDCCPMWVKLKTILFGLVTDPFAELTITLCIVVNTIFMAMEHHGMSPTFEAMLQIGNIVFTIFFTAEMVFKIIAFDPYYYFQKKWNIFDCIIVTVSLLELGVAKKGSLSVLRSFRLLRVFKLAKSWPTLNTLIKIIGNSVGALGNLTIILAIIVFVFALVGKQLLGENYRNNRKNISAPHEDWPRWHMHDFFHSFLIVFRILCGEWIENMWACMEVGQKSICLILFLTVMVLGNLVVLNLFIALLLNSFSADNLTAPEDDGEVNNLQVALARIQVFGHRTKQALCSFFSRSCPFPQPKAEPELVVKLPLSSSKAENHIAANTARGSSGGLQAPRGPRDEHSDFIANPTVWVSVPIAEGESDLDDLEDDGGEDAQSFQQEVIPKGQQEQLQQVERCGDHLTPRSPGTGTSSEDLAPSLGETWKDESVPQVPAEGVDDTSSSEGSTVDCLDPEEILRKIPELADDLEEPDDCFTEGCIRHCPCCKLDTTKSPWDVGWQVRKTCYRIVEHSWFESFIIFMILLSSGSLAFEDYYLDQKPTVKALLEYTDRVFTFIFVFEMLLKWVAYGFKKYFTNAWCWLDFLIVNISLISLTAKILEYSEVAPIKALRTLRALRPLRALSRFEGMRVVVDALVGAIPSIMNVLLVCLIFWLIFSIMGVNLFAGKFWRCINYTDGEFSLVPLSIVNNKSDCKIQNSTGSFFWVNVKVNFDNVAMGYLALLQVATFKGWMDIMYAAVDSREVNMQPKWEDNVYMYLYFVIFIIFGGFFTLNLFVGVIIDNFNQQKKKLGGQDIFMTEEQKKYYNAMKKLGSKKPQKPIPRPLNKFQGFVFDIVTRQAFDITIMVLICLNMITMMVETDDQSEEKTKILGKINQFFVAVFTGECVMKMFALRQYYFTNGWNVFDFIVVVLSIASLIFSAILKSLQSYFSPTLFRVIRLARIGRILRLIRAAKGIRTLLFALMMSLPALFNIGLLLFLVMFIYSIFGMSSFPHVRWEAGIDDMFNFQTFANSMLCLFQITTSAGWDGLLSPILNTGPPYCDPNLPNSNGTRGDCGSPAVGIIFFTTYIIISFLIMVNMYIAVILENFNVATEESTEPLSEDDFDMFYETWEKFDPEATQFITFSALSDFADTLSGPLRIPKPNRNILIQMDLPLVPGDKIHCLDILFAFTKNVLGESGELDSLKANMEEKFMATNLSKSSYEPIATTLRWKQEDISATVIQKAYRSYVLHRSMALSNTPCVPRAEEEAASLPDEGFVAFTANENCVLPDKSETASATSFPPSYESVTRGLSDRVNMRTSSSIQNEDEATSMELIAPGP
Test: E-VIPR assay detecting and measuring Nav inhibition (HEK cells expressing truncated human Nav 1.8)
Assay type: cell-based
Settings: in the Presence of Human Serum in the E-VIPR Assay; read-out: IC50
Excerpt: Sodium ion channels are voltage-dependent proteins that can be activated by inducing membrane voltage changes by applying electric fields. The electrical stimulation instrument and methods of use, referred to as E-VIPR, are described in International Publication No. WO 2002/008748 A3 and C.-J. Huang et al. Characterization of voltage-gated sodium channel blockers by electrical stimulation and fluorescence detection of membrane potential, 24 Nature Biotech. […]
ENDPOINT NAME: IC50

Supply reported IC50 belonging to this molecule: COc1c([C@@H]2[C@@H](C(=O)Nc3ccnc(C(N)=O)c3)O[C@](C)(C(F)(F)F)[C@@H]2C2CC2)ccc(F)c1F (single isomer, unassigned)
< 10 nM

State its IC50 for this molecule: COc1c([C@@H]2[C@@H](C(=O)Nc3ccnc(C(N)=O)c3)O[C@@](C)(C(F)F)[C@H]2C)ccc(F)c1F (stereo in doubt)
> 1000 nM

Using the record for COc1c([C@H]2C[C@@](C)(C(F)(F)F)O[C@@H]2C(=O)Nc2ccnc(C(N)=O)c2)ccc(F)c1C (single isomer, unassigned) , state its measured IC50.
> 1000 nM

Please look at this molecule and report its IC50: C[C@H]1[C@@H](c2ccc(F)cc2OC(F)F)[C@H](C(=O)Nc2ccc(F)c(C(N)=O)c2)O[C@@]1(C)C(F)(F)F (single isomer, unassigned)
< 10 nM

Tell me IC50 reported for COc1c([C@H]2C[C@@](C)(C(F)(F)F)O[C@@H]2C(=O)Nc2ccnc(C(N)=O)c2)ccc(F)c1Cl (relative stereo) [Compound 22]
10 to 100 nM

Please list IC50 recorded for the molecule Cc1c(F)ccc([C@@H]2C[C@](C)(C(F)(F)F)O[C@H]2C(=O)Nc2ccnc(C(N)=O)c2)c1F (single isomer, unassigned)
100 to 1000 nM

For Cc1c(F)ccc([C@@H]2[C@@H](C(=O)Nc3ccnc(C(N)=O)c3)O[C@](C)(C(F)(F)F)[C@@H]2C)c1OC(F)F (stereo in doubt) , write its IC50.
< 10 nM

Name the recorded IC50 of the item COc1c([C@@H]2C[C@](C)(C(F)(F)F)O[C@H]2C(=O)Nc2cc[n+]([O-])c(C(N)=O)c2)ccc(F)c1F (relative stereo) in your answer.
100 to 1000 nM

Give recorded IC50. COc1c([C@@H]2C[C@H](C(F)(F)F)O[C@H]2C(=O)Nc2ccnc(C(N)=O)c2)ccc(F)c1C (single isomer, unassigned)
100 to 1000 nM

Report measured IC50; entry is C[C@H]1[C@@H](c2ccc(F)c(F)c2OC(F)F)[C@H](C(=O)Nc2ccnc(C(N)=O)c2)O[C@@]1(C)C(F)(F)F [Compound 11]
< 10 nM

Assign IC50 to the following record: COc1c([C@H]2C[C@](C)(C(C)(F)F)O[C@@H]2C(=O)Nc2ccnc(C(N)=O)c2)ccc(F)c1F (single isomer, unassigned)
100 to 1000 nM

# return recorded IC50 for entry CNC(=O)c1cc(NC(=O)[C@H]2O[C@](C)(C(F)(F)F)C[C@@H]2c2ccc(F)c(Cl)c2OC)ccn1 (single isomer, unassigned)
> 1000 nM
